biological target: human His-PIM2 [23-299] (Homo sapiens, UniProt Q9P1W9); construct: purified human His-PIM2 [23-299] enzyme; His (N); host or cells: E. coli; assay: PIM2 in-vitro mobility shift assay (Caliper LC3000, FL-Ahx-Bad phosphorylation); type: biochemical; conditions: 1.5 h; percent inhibition at 0.3 uM compound; read-out: PIM2 % I at 0.3 uM
Sequence (Q9P1W9 23-299): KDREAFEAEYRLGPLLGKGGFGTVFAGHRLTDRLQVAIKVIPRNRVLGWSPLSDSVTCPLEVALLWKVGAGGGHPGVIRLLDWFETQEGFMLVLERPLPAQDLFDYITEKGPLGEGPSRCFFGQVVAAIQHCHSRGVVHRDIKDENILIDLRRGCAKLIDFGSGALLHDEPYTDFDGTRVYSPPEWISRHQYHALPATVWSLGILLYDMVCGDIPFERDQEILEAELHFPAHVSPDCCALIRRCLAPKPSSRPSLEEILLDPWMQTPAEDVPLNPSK
Structures can show the parent of a compound that is named as a salt.
Please use TRUE whenever inhibition at 0.3 µM is not below 60%, and FALSE whenever it is.

NCCCN1CCN(c2ccccc2/C=C2\SC(=O)NC2=O)CC1 ... TRUE
O=C1NC(=O)/C(=C/c2cc(C(F)(F)F)cc(Cl)c2N2CCN(CCO)CC2)S1 ... FALSE
Cc1noc(C2CCN(c3c(Cl)cc(C(F)(F)F)cc3/C=C3\SC(=O)NC3=O)CC2)n1 ... FALSE
N[C@@H]1CCCN(c2c(/C=C3\SC(=O)NC3=O)cccc2-c2ccccc2)C1 [Example 122AI] ... TRUE
COc1cc(/C=C2\SC(=O)NC2=O)c(N2CCN(C(C)C)CC2)cc1OC ... TRUE
CN1CCN(c2c(Cl)cc(C(F)(F)F)cc2/C=C2\SC(=O)NC2=O)CC1 ... FALSE
N[C@H]1CCN(c2ccc(C(=O)O)cc2/C=C2\SC(=O)NC2=O)C1 [Example 122AH] ... FALSE
COc1ccc(N2CC[C@H](N(C)C)C2)c(C=C2SC(=O)NC2=O)c1 [Example 84G] ... TRUE

Say whether COCC(=O)N[C@H]1CCN(c2c(Cl)cccc2/C=C2\SC(=O)NC2=O)C1 shows inhibition at 0.3 µM of 60% or more.
FALSE

Say whether CN(C)CC(=O)N[C@H]1CCN(c2c(Cl)cccc2/C=C2\SC(=O)NC2=O)C1 shows inhibition at 0.3 µM of 60% or more.
TRUE

Say whether CNCCN[C@@H]1CCCN(c2c(Cl)cccc2/C=C2\SC(=O)NC2=O)C1 [Example 122S, hydrochloride] shows inhibition at 0.3 µM of 60% or more.
TRUE

Say whether COc1cc(/C=C2\SC(=O)NC2=O)c(-c2cccnc2)cc1OC shows inhibition at 0.3 µM of 60% or more.
FALSE

Say whether O=C1NC(=O)/C(=C/c2cccc(Cl)c2N2CCC[C@@H](NCCCO)C2)S1 shows inhibition at 0.3 µM of 60% or more.
TRUE

Say whether N#CCC(=O)N[C@H]1CCN(c2c(Cl)cccc2/C=C2\SC(=O)NC2=O)C1 shows inhibition at 0.3 µM of 60% or more.
FALSE

Say whether NC(=O)NCC(=O)N[C@H]1CCN(c2c(Cl)cccc2/C=C2\SC(=O)NC2=O)C1 shows inhibition at 0.3 µM of 60% or more.
TRUE

Say whether COc1cc(/C=C2\SC(=O)NC2=O)c(N2CC[C@H](NC(=O)CCCCN)C2)cc1OC [Example 120, hydrochloride] shows inhibition at 0.3 µM of 60% or more.
FALSE

Say whether N[C@@H]1CCCN(c2ccccc2/C=C2\SC(=O)NC2=O)C1 [Example 122W, hydrochloride] shows inhibition at 0.3 µM of 60% or more.
TRUE

====

biological target: human His-PIM1 [2-313] (Homo sapiens); construct: purified human His-PIM1 [2-313] enzyme; His (N); purchased University of Dundee, Scotland; host or cells: baculovirus system; experiment: PIM1 in-vitro mobility shift assay (Caliper LC3000, FL-Ahx-Bad phosphorylation); type: biochemical; settings: 1.5 h; percent inhibition at 0.3 uM compound; read-out: PIM1 % I at 0.3 uM
Sequence (P11309 2-313): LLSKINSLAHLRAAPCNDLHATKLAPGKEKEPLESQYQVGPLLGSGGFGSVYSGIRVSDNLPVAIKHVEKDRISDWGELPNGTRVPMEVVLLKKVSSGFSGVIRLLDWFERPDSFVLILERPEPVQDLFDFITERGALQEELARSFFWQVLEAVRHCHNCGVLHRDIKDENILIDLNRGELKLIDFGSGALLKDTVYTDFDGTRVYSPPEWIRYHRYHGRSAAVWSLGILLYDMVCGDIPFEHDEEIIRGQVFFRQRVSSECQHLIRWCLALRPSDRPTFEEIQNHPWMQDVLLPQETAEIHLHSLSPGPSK
Each entry below carries its reported inhibition at 0.3 µM.
Just the number in %, nothing appended.

COc1cc(/C=C2\SC(=O)NC2=O)c(-c2cccnc2)cc1OC [Example 65] ... 45.3

For the compound CN1CCN(Cc2cccc(/C=C3\SC(=O)NC3=O)c2)CC1 [Example 84E] , the measured inhibition at 0.3 µM on human His-PIM1 [2-313] (Homo sapiens) was 11.7
